# Species on record: Homo sapiens
# test-protocol: To identify inhibition of the IFN signalling (Jak-Stat) pathway via expression of an eGFP reporter gene under the control of an IFN-stimulated response element (ISRE) containing MxA promoter.
# Format: functional
# Design: scale not given: direction of the effect not stated beside the values
# study-conditions: 30 µM
Where Percent Effect equals or exceeds 10%, the correct label is Yes; where it does not, the label is No.

| molecule | discrete-label |
| --- | --- |
| Cc1ccc(-c2nc(CN3CCOC(Cn4cccn4)C3)cs2)o1 (centres undefined) | No |

Task: API: above_or_equal(metric=Percent Effect, cutoff=10%) for item Cc1cccc(C2(NC(=O)CCN3C(=O)CCC3=O)CCCC2)c1
Result: No

Task: Hello, I need to know if Nc1nc(CCC(=O)N2CCOC(CC3CCCCC3)C2)cs1 (centres undefined) has measured Percent Effect not below 10%. Thanks!
Result: Yes

---

# Tested on: Trypanosoma cruzi
# test-protocol: Trypanosoma cruzi phosphomannomutase and mannose-1-phosphate guanylyltransferase assay
# Type: functional
# Set-up: scale not given: direction of the effect not stated beside the values
# study-conditions: 10 µM
metric: Percent Effect (%)
Answers are plain numbers, in %.

Completed entries (count: 5):
| compound | endpoint-unit | Percent Effect |
| --- | --- | --- |
| CN(CC1CN(Cc2cn3ccsc3n2)CCO1)c1cccnn1 (configuration not stated) | % | -7.54 |
| CC(C)(C)c1n[nH]c(C2CN(C(=O)c3csnn3)CCO2)n1 (configuration not stated) | % | 7.5 |
| CS(=O)(=O)NCc1cc2n(n1)CCCN(Cc1nc3ccccc3[nH]1)C2 | % | -1.46 |
| O=C1C(NCc2nnc3n2CCCC3)CCN1CC(F)(F)F (configuration not stated) | % | 8.73 |
| CCNC(=O)NC(=O)CSC(C)c1ccccc1F (configuration not stated) | % | 3.8 |

Value sought for every listed compound: Percent Effect.
1. Cn1cnc2c1CCN(Cc1noc(-c3ccccc3)n1)C2
2. Cc1nn(C)cc1CCC(=O)N1CCCC(n2cncn2)C1 (configuration not stated)
3. CCNC(=O)CCc1c(C)nc2cc(O)nn2c1C
4. CC(=O)N1CCc2c(nc(-c3ccncc3)nc2N(C)CC(O)CO)C1 (configuration not stated)

Result:
1. 3.08
2. 1.21
3. 5.43
4. -2.62

---

# target-of-assay: Tyrosyl-tRNA synthetase, putative (Trypanosoma cruzi (strain CL Brener)) (UniProt Q4DSP6)
# Sequence (Q4DSP6 as listed by the source): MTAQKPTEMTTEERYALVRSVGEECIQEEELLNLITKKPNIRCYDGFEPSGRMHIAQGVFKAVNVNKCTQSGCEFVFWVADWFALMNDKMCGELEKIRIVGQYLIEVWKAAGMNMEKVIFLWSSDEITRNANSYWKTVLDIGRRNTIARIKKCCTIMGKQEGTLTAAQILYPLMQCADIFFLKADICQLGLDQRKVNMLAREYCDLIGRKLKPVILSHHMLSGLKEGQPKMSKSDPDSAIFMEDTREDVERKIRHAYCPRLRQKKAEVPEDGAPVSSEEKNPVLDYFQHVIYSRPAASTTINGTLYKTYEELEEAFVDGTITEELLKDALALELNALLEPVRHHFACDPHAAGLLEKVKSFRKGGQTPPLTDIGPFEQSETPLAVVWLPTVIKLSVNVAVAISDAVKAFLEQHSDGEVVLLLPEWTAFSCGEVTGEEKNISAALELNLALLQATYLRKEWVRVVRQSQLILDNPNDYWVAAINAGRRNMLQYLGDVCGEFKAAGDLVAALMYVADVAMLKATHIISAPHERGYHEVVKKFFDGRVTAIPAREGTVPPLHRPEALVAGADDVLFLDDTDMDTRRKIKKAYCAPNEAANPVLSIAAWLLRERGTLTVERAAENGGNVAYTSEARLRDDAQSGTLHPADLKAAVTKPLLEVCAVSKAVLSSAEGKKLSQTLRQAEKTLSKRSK
# test-protocol: Trypanosoma cruzi tyrosyl tRNA synthetase (TcYRS) SOP
# Type: functional
# Design: scale not given: direction of the effect not stated beside the values
# study-conditions: 30 µM
Classify: t when Percent Effect is strictly less than 10%; f when Percent Effect is not.

Here's what some known entries look like.
| compound | target-of-assay | discrete-label |
| --- | --- | --- |
| Cc1cccc(C(=O)N2CCCCC2c2ccc(CN(C)C)cc2)n1 (stereo not given) | Tyrosyl-tRNA synthetase, putative (Trypanosoma cruzi (strain CL Brener)) (UniProt Q4DSP6) | f |
| Cc1cnn(CC(C)NCc2ccc(-n3cccn3)cc2)c1 (stereo not given) | Tyrosyl-tRNA synthetase, putative (Trypanosoma cruzi (strain CL Brener)) (UniProt Q4DSP6) | t |
| O=C(C1SCCc2sccc21)N1CCC(O)CC1 (stereo not given) | Tyrosyl-tRNA synthetase, putative (Trypanosoma cruzi (strain CL Brener)) (UniProt Q4DSP6) | t |

Task: Hello, I'm reviewing records and need to know if Percent Effect of CN(CC(=O)N1CCC(C(O)c2ccccc2)CC1)c1cnccn1 (stereo not given) is below 10%. Could you check?
Result: f

Task: Regarding Cc1cccc(CN2CCC3(CCN(Cc4ccccn4)C3)C2=O)c1 (stereo not given) , kindly confirm whether its Percent Effect is beneath 10%.
Result: t

Task: Decide: Percent Effect of Cc1nn(C)cc1CN(C)Cc1cc2c(cc1OC(F)F)OCO2 strictly below 10%?
Result: t
